The reader will find pIC50 measurements below, all made with UniProt Q9BUB5.
Sequence (Q9BUB5 whole entry): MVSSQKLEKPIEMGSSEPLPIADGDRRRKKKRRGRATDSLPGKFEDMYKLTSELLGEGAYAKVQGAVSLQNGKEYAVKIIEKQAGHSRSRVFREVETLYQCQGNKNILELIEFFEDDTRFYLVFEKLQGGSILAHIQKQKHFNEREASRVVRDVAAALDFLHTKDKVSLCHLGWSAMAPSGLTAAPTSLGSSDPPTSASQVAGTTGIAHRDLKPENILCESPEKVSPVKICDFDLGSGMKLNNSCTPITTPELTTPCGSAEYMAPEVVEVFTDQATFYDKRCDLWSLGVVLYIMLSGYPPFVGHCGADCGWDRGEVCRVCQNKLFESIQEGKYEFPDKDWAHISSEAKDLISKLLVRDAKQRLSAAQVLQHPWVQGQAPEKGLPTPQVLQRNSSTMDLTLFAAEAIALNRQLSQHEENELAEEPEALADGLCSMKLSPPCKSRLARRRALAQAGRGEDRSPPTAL
pIC50: −log10 of the molar value. Where a name gives a salt, the structure may show the parent alone.
Measured Parameter: pIC50

INSERT INTO measurements (molecule, result_value) VALUES
  ('CC1(C)NC(=O)c2c(Cl)cc(Nc3ncnc4cnccc34)c(=O)n21', '7.00 to 8.00'),
  ('Cc1cc(Nc2cc(N)ncn2)c(=O)n2c1C(=O)NC21CCC(F)(F)CC1 [Cpd. No. 103, hydrochloride]', '> 8.00'),
  ('Cl.O=C1NC2(CCCNC2)n2c1c(Cl)cc(Nc1cc(NC(=O)C3CC3)ncn1)c2=O (centres unmarked) [Cpd. No. 60, hydrochloride]', '> 8.00'),
  ('O=C1NC2(CCNC2)n2c1ccc(Nc1ccncn1)c2=O (centres unmarked)', '7.00 to 8.00'),
  ('O=C1NC2(CNC2)n2c1c(Cl)cc(Nc1cc(NC(=O)C3CC3)ncn1)c2=O [Cpd. No. 86, hydrochloride]', '> 8.00');
